# Protocol: Peak drug concentration in overnight-fasted ICR mouse colon at 50 mg/kg, po measured after 4 hr by LC-MS/MS analysis
# Type: ADME, organism-based
# Design: route oral, time 4 hrs, dose 50 mg/kg
Parameter: Cmax (ng/g)
One number for each entry, in ng/g.

Which Cmax is reported for this compound? CCOCOC(=O)c1coc2ccc(Oc3ccncc3C(=O)N3CCN(C4CC4)c4ccccc43)cc12
2700
